tested system: UniProtKB Q9R0W2
Sequence (Q9R0W2 whole entry): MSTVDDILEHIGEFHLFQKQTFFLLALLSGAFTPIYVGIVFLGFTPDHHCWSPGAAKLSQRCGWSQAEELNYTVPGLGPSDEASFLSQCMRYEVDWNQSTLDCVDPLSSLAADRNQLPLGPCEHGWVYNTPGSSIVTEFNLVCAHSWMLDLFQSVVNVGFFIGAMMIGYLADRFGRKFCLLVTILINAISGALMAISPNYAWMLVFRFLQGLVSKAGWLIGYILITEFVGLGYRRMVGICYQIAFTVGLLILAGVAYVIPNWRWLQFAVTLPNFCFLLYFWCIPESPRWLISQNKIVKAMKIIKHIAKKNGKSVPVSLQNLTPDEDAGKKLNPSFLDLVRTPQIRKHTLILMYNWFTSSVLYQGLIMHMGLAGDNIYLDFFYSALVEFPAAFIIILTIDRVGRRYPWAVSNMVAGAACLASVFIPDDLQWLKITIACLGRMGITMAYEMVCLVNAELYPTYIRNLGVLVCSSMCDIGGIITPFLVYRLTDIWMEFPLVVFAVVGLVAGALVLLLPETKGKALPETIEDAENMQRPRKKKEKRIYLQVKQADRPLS
experimental protocol: TP_TRANSPORTER: inhibition of TEA uptake (basolateral to cell) in OCT2-expressing MDCK cells
Type: functional, cell-based
value kind: pKi
The read-out pKi is expressed as -log10 of concentration in moles per litre.

C[n+]1ccc(-c2ccccc2)cc1 :: 5.74
CN1CCC[C@H]1c1cccnc1 [NICOTINE] :: 4.30
CNC(=O)c1cccnc1 [NICOTINYL METHYLAMIDE] :: 3.39
CN/C(=N/CCSCc1nc[nH]c1C)NC#N [CIMETIDINE] :: 5.03
N=C(N)N [GUANIDINE] :: 3.15

Note: attention shifts to another entry.
Entry C=C[C@H]1C[N@@]2CC[C@H]1C[C@@H]2[C@@H](O)c1ccnc2ccc(OC)cc12 [QUINIDINE] , pKi reported as 4.72

----------
tested system: Solute carrier family 22 member 1 (Rattus norvegicus, UniProt Q63089)
Sequence (Q63089 whole entry): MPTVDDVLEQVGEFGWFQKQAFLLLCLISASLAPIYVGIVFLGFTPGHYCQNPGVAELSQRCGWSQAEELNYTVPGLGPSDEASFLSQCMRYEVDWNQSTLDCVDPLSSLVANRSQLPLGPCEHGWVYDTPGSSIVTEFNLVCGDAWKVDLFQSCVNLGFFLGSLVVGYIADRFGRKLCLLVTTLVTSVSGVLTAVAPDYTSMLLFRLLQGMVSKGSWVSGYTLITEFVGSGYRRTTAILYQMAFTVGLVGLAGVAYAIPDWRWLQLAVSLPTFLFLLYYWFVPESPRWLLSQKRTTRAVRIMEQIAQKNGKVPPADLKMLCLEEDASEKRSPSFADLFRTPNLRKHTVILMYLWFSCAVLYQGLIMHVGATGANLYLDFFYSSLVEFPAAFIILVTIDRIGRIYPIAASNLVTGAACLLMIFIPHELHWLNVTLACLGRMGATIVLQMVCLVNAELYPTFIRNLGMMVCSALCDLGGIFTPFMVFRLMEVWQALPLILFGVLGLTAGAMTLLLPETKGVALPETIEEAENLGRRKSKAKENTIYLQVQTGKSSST
experimental protocol: TP_TRANSPORTER: inhibition of TEA uptake (basolateral to cell) in OCT1-expressing MDCK cells
value kind: pKi
Scale: negative log10 of molar concentration, which is what pKi denotes.

Notebook: CNC(=O)c1cccnc1 [NICOTINYL METHYLAMIDE] , pKi read as 3.17

pKi reading for N=C(N)N [GUANIDINE] : 3.14

GET /value?item= C[n+]1ccc(-c2ccccc2)cc1 &field=pKi returns 6.10

// pKi value for CC[N+](CC)(CC)CC [TETRYLAMMONIUM] : 4.33

pKi in this record for CN/C(=N/CCSCc1nc[nH]c1C)NC#N [CIMETIDINE] : 5.24

Note to self: pKi recorded for CN1CCC[C@H]1c1cccnc1 [NICOTINE] was 4.19

Cited source: ChEMBL document CHEMBL2074081
